# target-of-assay: HLA-A*0203 (human)
# particulars: remark: other sources report otherwise
Ends that are not written are not given here.
parameter: log10 of IC50 (log10 of the value in nM)
Annotation: log10 of IC50, nM basis.

Some entries whose results are on file:
- FLRPRSLQCV [peptide 1419.07 (HuK2.165)]: 0.62
- HLLSNDMCARV [peptide 1418.67 (HuK2.177.V11)]: 0.72
- SLQCVSLHV [peptide 1418.19 (HuK2.170.V9)]: 1.68
- SLQCVSLHL [peptide 60.0191 (HuK2.170, 9-mer)]: 2.62
- SVGCTGAVPV [peptide 1418.35 (HuK2.11.V10)]: 2.19

Report log10 of IC50 for HLLSNDMCARA (not fully specified) [peptide 1419.15 (HuK2.177)] please.
2.40

# log10 of IC50 lookup, item SLHLLSNDMCV [peptide 1418.66 (HuK2.175.V11)]
1.00
